- Measurement Description: compound fluorescence in toxin protease inhibitor counterscreen, primary screen, artefact control for toxin protease inhibitor project, biochemical, multiplex microsphere, HTS (AID 624483)
- Condition Notes: compound autofluorescence counterscreen, microsphere flow cytometry
Hit rate of the full screen: of about 360,000 compounds, about 11,000 (3.1%) were called active. Inconclusive results (about 2%) are left out. No stated cut-off is given here; in the data, active means fluorescence intensity above about 16000; inconclusive means no clear call, values can overlap the other calls; inactive means below that. The sample holds actives, similar compounds and a random draw of the others, so the mix is not that of the screen.
Tick one outcome: active, inactive

Molecule	Class Assignment
COc1ccc(-c2cc(NC=O)c3ncc(-c4cccc(C(=O)N(C)C)c4)n3c2)c(OC)c1	inactive

Turning now to a further molecule:
Assay outcome for O=C(NCc1csc(-c2cccs2)n1)C1CC1 : what was it? inactive

----------
- Measurement Description: compound fluorescence in toxin protease inhibitor counterscreen, primary screen, artefact control for toxin protease inhibitor project, biochemical, multiplex microsphere, HTS (AID 624483)
- Condition Notes: compound autofluorescence counterscreen, microsphere flow cytometry
Out of some 360,000 compounds screened, about 11,000 (3.1%) were called active. Inconclusive results (about 2%) are left out. Cut-off read from the data, not from the text of the source: active = fluorescence intensity above about 16000; inconclusive = no clear call, values can overlap the other calls; inactive = below that. The sample as a whole holds a higher share of actives than the screen did.
Your response should consist of one outcome taken from active, inactive

Examples with answers:
Compound	Class Assignment
Cc1cc(C(=O)N2CCN(c3ccccn3)CC2)c(C)o1	active
COc1ccccc1Nc1ncc(C(C)=O)c(C)n1	inactive
CN(C)C(CNC(=O)CCCOc1ccccc1)c1ccco1 (centres undefined)	active
CCN(c1ccccc1)S(=O)(=O)c1ccc(C(=O)Nc2ccccc2OC)cc1	inactive
Cc1ccc(NC(=O)NC(=O)N(C2CCCCC2)S(=O)(=O)c2ccccc2)cc1	inactive

# lookup: test call for Cc1ccccc1CSc1nnc(-c2cccnc2)n1N inactive

Any idea what this test logged for CC1(C)CC(O)C(CCC(O)c2ccccc2)C(C)(C)N1 (centres undefined) ? inactive

Recorded test outcome, item CCN(c1ccccc1)S(=O)(=O)c1ccc(N)cc1 inactive

Recorded test outcome, item COC(=O)[C@]12CCCCC=C1N(CCC1=CCCCC1)C(=O)[C@H](CC(=O)NCC1CCCCC1)C2 inactive

Answer briefly: the call reported for COC(=O)[C@]1(Cc2ccccc2)N[C@H](CN(C)S(=O)(=O)c2ccc(F)cc2)[C@@H]2C(=O)N(Cc3ccccc3)C(=O)[C@@H]21 in this assay. inactive

Look up the recorded call for CCCCC(CC)C(=O)Nc1ccc(Cl)cn1 (centres undefined) in this test. active

What classification did COc1ccc(NC(=O)C2CCN(S(=O)(=O)c3ccc4[nH]c(=O)oc4c3)CC2)c(OC)c1 end up with in this test? inactive

Write down the call the test reported for this compound. Item: CCCCCCOC(=O)NCC(O)c1ccccc1 (centres undefined) active

----------
- Measurement Description: compound fluorescence in toxin protease inhibitor counterscreen, primary screen, artefact control for toxin protease inhibitor project, biochemical, multiplex microsphere, HTS (AID 624483)
- Condition Notes: compound autofluorescence counterscreen, microsphere flow cytometry; active compounds read high
Screen size: about 360,000 compounds; about 11,000 (3.1%) were called active. Not shown: some 2% with an inconclusive outcome. What follows is part of a selection rich in actives, with near analogues and random picks from the rest.
Recorded Endpoint: fluorescence intensity
Numbers only.

# count of solved cases: 3
Compound	fluorescence intensity
O=C(Nc1nnc(Cc2ccccc2)s1)c1cnccn1	3990
COc1ccc(C(C(=O)NC2CCCC2)N(CCCO)C(=O)Cn2nnc(-c3ccc(C)o3)n2)cc1 (configuration not stated)	5780
CC(C)CCNC(=O)CN(C(=O)Cn1nnc(-c2ccc(F)cc2)n1)C1CCCC1	7590

Go through the list and state fluorescence intensity for each entry.
1. Cc1ccc2c(c1)N(CC(=O)N1CCCc3ccccc31)C(=O)C(C)O2 (configuration not stated)
2. OC(c1ccc(Cl)c(F)c1)c1ncc(-c2ccccc2Cl)[nH]1 (configuration not stated)

1. 22200
2. 3970

Give fluorescence intensity for all compounds that follow.
1. Cc1[nH]c2ccccc2c1C(=O)CSCC(=O)O
2. CCn1c(SCC(=O)NC2CC2)nnc1-c1ccncc1
3. COC(=O)c1cc(OC)c(OC)cc1NC(=O)C1CCCO1 (configuration not stated)
4. COc1ccc(NC(=O)NCc2ccc3c(c2)OCO3)c(OC)c1
5. CCOc1ccc(NC(=O)c2ccc(NC(=O)C3CCCO3)cc2)cc1 (configuration not stated)
6. CC(C)(C)N1C(=O)c2c(C(=O)OCc3ccccc3)[nH]c(-c3ccccc3)c2C1=O
7. O=C(Nc1ccc(-c2nnc(-c3ccccc3)o2)cc1)C1CCCO1 (configuration not stated)

23600
4270
18500
5960
5940
5800
23500
